Test system: HT29 colon
Experiment: NCI tumour cell line growth inhibition, 48 h
Kindly supply the reported TGI values for the records listed here.

// query Please report the recorded TGI for c1ccc(C2OCCO2)c(OCCOc2cc(OCCOc3ccccc3C3OCCO3)c(OCCOc3ccccc3C3OCCO3)cc2OCCOc2ccccc2C2OCCO2)c1 .
// result > 100 µM

// query Please report the recorded TGI for CCOc1ccc(NCC2CC/C(=C\c3ccc(O)cc3)C2=O)cc1 (stereo not drawn) .
// result 33 µM

// query Please report the recorded TGI for CCc1nnc(-c2nsc3ccccc23)s1 .
// result > 100 µM

###

Kindly supply the reported TGI values for the records listed here.
Test system: MDA-MB-231 breast
Assay: NCI tumour cell line growth inhibition, 48 h
Note: unit µM is implicit; provide only the numeric part.

// query Please report the recorded TGI for S=C(Nc1cc(Cl)c(Cl)cc1Cl)SCc1ccccc1 .
// result 29.6

// query Please report the recorded TGI for C=C1CCC2C3(C)COC(c4ccccc4Br)OC3CCC2(C)C1C/C=C1/C(=O)OCC1OC(C)=O (stereo unspecified) .
// result 3.16

// query Please report the recorded TGI for COC1=CC(=O)c2c(O)c3c(c(O)c2C1=O)C=C(C)OC3O (stereo unspecified) .
// result 5.09

// query Please report the recorded TGI for CSc1ccccc1C#Cc1ccccc1C#CCCCCO .
// result 13.2

// query Please report the recorded TGI for COc1ccc(/C=C2\CCC(CN(C)C)C2=O)cc1OC (stereo unspecified) .
// result 7.71

###

System: OVCAR-3 ovarian
Test: NCI tumour cell line growth inhibition, 48 h
REPORTED ENDPOINT: TGI

// query Please report the recorded TGI for O=C(Cc1ccccc1)NCCCN(CCCCN(CCCNC(=O)Cc1ccccc1)C(=O)OCc1ccccc1)C(=O)OCc1ccccc1 .
// result > 100 µM

// query Please report the recorded TGI for c1ccc(P(CCP(CCP(c2ccccc2)c2ccccc2)c2ccccc2)CCP(c2ccccc2)c2ccccc2)cc1 (stereo unspecified) .
// result > 10 µM

// query Please report the recorded TGI for CCCC(Sc1ccccc1)P(=O)(c1ccccc1)c1ccccc1 (stereo unspecified) .
// result > 100 µM

// query Please report the recorded TGI for COc1cc(C)c(O)c(C(=O)O)c1 .
// result > 100 µM

// query Please report the recorded TGI for CC1OC1C(=O)C1(O)C(C)C(O)C23OC2(C(O)c2c(O)cccc2C3=O)C1O (stereo unspecified) .
// result 0.352 µM

// query Please report the recorded TGI for CC(=O)N(CN1C(=O)CCC1C(=O)O)c1cccc(O)c1 (stereo unspecified) .
// result > 100 µM

// query Please report the recorded TGI for COc1cc2c(cc1OC)C(C)N(C)c1c-2c(OC(C)=O)cc2cc(OC)c(OC)cc12 (stereo unspecified) .
// result > 100 µM

// query Please report the recorded TGI for COc1ccc(C(=O)N(C(=S)OCCOc2ccccc2)c2ccccc2)cc1 .
// result > 100 µM

// query Please report the recorded TGI for O=C1/C(=C/c2ccccc2)CCC/C1=C\c1ccc(O)c(CN2CCCCC2)c1 .
// result 22.9 µM

// query Please report the recorded TGI for O=C1C(=C(I)I)c2ccccc2-c2ccccc21 .
// result 3.82 µM

// query Please report the recorded TGI for Cc1n[nH]c(=O)n1/N=C\CC/C=N\n1c(C)n[nH]c1=O .
// result > 100 µM
